Kindly state IC50 for each of the entries shown.
TESTED TARGET: T1, human RANK-L (human, UniProt O14788 140-317, limits assumed)
T1 construct: Soluble protein, used coated, biotinylated or labelled in ELISA, AlphaScreen, FMAT and Biacore; also called hRANK-L; soluble human RANK-L
T1 sequence (looked up): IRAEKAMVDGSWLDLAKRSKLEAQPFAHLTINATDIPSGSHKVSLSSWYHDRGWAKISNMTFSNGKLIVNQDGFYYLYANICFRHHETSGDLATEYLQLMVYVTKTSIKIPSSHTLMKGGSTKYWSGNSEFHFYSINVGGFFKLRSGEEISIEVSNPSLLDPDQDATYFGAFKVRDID
TEST PROTOCOL: AlphaScreen, biotin-hRANK-L / RANK-huFc beads
Description: To this mixture, the RANK acceptor beads and the streptavidin donor beads were added and further incubated for 1 hour at room temperature. Fluorescence was measured by reading plates on the EnVision Multilabel Plate Reader (Perkin Elmer) using an excitation wavelength of 680 nm and an emission wavelength of 520 nm.
One number for each entry, in nM.

Sample answers from the record:
binder="RANKL14 (VHH, not shown: c-myc and His6 tags) VHH: EVQLVESGGGLVQAGGSLRLSCAASGRTSSYYTMSWFRQDPGKEREFVAAVPLSGNTYYADPVRGRFTISRDNAKNTADLQMNSLKPEDTAVYYCAARASGSIYNRGSYAYWGQGTQVTVSS" quantity_name=IC50 unit_name=nM val=1.75
binder="RANKL16 (VHH, not shown: c-myc and His6 tags) VHH: EVQLVESGGGLVQAGGSLRLSCVASRRTFSSYAMGWFRQVPGKERDFVAAISTGSITIYGDSVKGRFTISRDNAKNTVYLQMNSLKPEDTAVYYCAAGKREPYLRQYTASNPYDYWGQGTQVTVSS" quantity_name=IC50 unit_name=nM val=2.25
binder="RANKL4 (VHH, not shown: c-myc and His6 tags) VHH: KVQLVESGGGLVQTGDSLRLSCAASGRAIGSYAMGWFRQAPGKEREFVAVINYRGSSLKYADRVKGRFTISRDNAKNMVYLQMNSLKPDDTAVYYCAAQTSGADFGTTPQRYTYWGQGTQVTVSS" quantity_name=IC50 unit_name=nM val=0.582

With those in mind, consider the next binder.
### Prompt IC50 lookup needed for RANKL19 (VHH, not shown: c-myc and His6 tags) VHH: EVQLVESGGGLVQAGDSLRLSCAASGRTVTMGWFRQAPGKEREFVASITGSGSVTNYADSVKGRFTISRDNAKNTVFLQMNSLKPEDTAVYYCAAYLPSPYYSSYYDSTKYEYWGQGTQVTVSS , thanks.
### Response 2.24
